Catalogue of molecules with associated z-score
# Target Of Assay: NADPH oxidase 4 (Homo sapiens) (UniProt Q9NPH5)
# Sequence (Q9NPH5 whole entry, looked up): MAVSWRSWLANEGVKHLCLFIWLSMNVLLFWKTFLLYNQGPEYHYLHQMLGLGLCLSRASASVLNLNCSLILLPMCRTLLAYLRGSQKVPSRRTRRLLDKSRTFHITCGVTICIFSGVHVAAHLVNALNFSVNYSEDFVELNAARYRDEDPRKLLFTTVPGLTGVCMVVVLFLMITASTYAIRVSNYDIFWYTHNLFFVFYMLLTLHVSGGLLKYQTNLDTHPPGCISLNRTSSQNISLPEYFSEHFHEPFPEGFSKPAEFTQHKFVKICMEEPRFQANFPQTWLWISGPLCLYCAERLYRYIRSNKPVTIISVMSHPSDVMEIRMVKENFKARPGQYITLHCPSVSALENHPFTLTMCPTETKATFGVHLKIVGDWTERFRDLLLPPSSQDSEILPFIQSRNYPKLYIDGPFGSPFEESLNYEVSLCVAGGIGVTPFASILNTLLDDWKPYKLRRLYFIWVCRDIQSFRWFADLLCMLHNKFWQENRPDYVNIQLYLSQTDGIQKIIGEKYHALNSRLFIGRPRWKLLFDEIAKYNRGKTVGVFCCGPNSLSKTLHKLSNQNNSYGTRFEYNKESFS
# Assay Protocol: NOX4-dependent H2O2 signal modulators, primary screen, NOX inhibitor project, cell-based, HEK293-NOX4, tetracycline-induced, Amplex Red fluorescence (AID 1160)
# Condition Parameters: 45 min, higher = more signal, called active from +8 up or from −8 down
Calls of active or inactive are those of the source.

Compound String	Target Of Assay	Recorded Value
CNS(=O)(=O)c1ccc(C)cc1	NADPH oxidase 4 (Homo sapiens) (UniProt Q9NPH5)	0.878 (inactive)
COCCOC(=O)N1C(=O)[C@@]2(c3cc(C#CCNC(N)=O)ccc31)[C@H](C(=O)Nc1nc3ccccc3s1)[C@H]1C(=O)O[C@H](c3ccccc3)[C@H](c3ccccc3)N1[C@@H]2c1ccc(OCCO)cc1	NADPH oxidase 4 (Homo sapiens) (UniProt Q9NPH5)	1.19 (inactive)
COCCCNC(=O)[C@@H]1c2ccccc2C(=O)N(Cc2ccccc2Cl)[C@H]1c1ccc(CO)cc1	NADPH oxidase 4 (Homo sapiens) (UniProt Q9NPH5)	0.986 (inactive)
NC(=O)NCC#Cc1ccc2c(c1)[C@]1(C(=O)N2)[C@H](C(N)=O)[C@H]2C(=O)O[C@H](c3ccccc3)[C@H](c3ccccc3)N2[C@@H]1c1ccc(O)cc1	NADPH oxidase 4 (Homo sapiens) (UniProt Q9NPH5)	-0.519 (inactive)

// field: z-score; key: CO[C@H]1O[C@H](CO)[C@@H](OC(=O)Nc2ccc(Oc3ccccc3)cc2)[C@H](OC(=O)Nc2ccc3c(c2)OCO3)[C@H]1OC(=O)Nc1ccc2c(c1)OCO2 ; value = -1.65 (inactive)

The reported z-score of the molecule CCOC(=O)C[C@H]1[C@H](OC(=O)c2ccc(C(=O)c3ccccc3)cc2)[C@@H](NC(=O)CC(C)C)c2cc(OCCCO)ccc2N1C(=O)c1ccc2ccccc2n1 was 0.892 (inactive)

====

# Target Of Assay: E3 ubiquitin-protein ligase XIAP (Homo sapiens)
# Assay Protocol: XIAP binders, primary screen, biophysical, small-molecule microarray, fluorescence 635 nm (AID 1181);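 note: score merges 667 nm emission and signal to noise over triplicate slides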
# Condition Parameters: small-molecule microarray binding, higher = more signal
Value Kind: composite z-score
// no unit, no text: just the number

Here are 5 compounds together with their reported answers.
Compound	composite z-score
COc1ccccc1CN1C(=O)c2ccccc2[C@@H](C(=O)NC2CC2)[C@@H]1c1ccc(CO)cc1	-0.0085
CCOC(=O)C[C@H]1[C@H](OC(=O)c2ccccc2-c2ccccc2)[C@@H](NC(=O)CC(C)C)c2cc(OCCCO)ccc2N1C(=O)Cc1ccc(OC)cc1	-0.135
NC(=O)[C@@H]1[C@H]2C(=O)O[C@H](c3ccccc3)[C@H](c3ccccc3)N2[C@H](c2ccc(O)cc2)[C@@]12C(=O)Nc1ccccc12	0.0073
CCOC(=O)C[C@H]1[C@H](OC(=O)c2ccc(C(=O)c3ccccc3)cc2)[C@@H](NC(=O)c2ccc3ccccc3n2)c2cc(OCCCO)ccc2N1C(=O)c1ccccc1	-0.0326
CNS(=O)(=O)c1ccc(C)cc1	-0.328

// NC(=O)NCC#Cc1ccc2c(c1)[C@]1(C(=O)N2)[C@H](c2ccccc2OCCO)N2[C@H](c3ccccc3)[C@H](c3ccccc3)OC(=O)[C@H]2[C@@H]1C(=O)Nc1nc2ccccc2s1 : composite z-score value = -0.102

Entry under test: C=C(CCCC)/C(=C/C[C@@H](OC(=O)c1ccncc1)c1ccc(OCCO)cc1)c1cc(C(=O)OC)ccc1OC . Its composite z-score was -0.141

compound O=C(N1CCCCC1)[C@]1(Cc2ccccc2)N=C(c2ccc(OCCCO)cc2)O[C@@H]1c1ccccc1 , composite z-score observed: 0.205

Record CN1C(=O)C2C=CC(C(O)c3ccc([N+](=O)[O-])cc3)N(N3CCCCC3)C2C1=O (stereo not given) , field composite z-score: 0.384

get_value(item= CN(C)CCCCCCNC(=O)[C@@H]1C[C@@H]2C(=O)N[C@@H](Cc3ccccc3)C(=O)N2[C@@H]1c1ccc(O)cc1 , readout=composite z-score) returns 0.458

The compound identified as C=CCN1C(=O)[C@]2(O[C@H](CCn3cc([C@H](O)c4ccccc4)nn3)[C@@H]([Si](C)(C)c3ccc(OC)cc3)[C@@H]2C)c2ccccc21 registered its composite z-score at -0.104

Reported composite z-score ( CCC[C@@H]1C[C@@]1(CCC)[C@@H](NC(=O)c1ccccc1)c1cccc(Cl)c1 ) = -0.0326

====

# Assay Protocol: yeast growth modulation, basal conditions, primary screen, YJM789 clinical isolate, OD600, 24 h (AID 1089);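 note: growth of clinical yeast isolate S. cerevisiae YJM 789 seeded 1000 cells per well; test concentration not given here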
# Condition Parameters: S. cerevisiae YJM789 growth, higher = more signal, called active from +8 up or from −8 down
As shown below, each of these molecules has a reported z-score value.
Give the value as a plain number.

Sample answers from the record:
> print(dat)
                                   molecule  value.kind  recorded.value
1  COc1ccc([Si](C)(C)[C@@H]2[C@@H](CC(=O)N3CCC[C@H]3CO)O[C@]3(C(=O)N(c4ccccc4)c4ccccc43)[C@H]2C)cc1     z-score           -1.57
2  C=CC(=C)[C@H]1Oc2ccccc2S(=O)(=O)N2CCC[C@@H]12     z-score          -0.946
3                CC(C)=CCN[C@H](CO)c1ccccc1     z-score          -0.613
4  CC(C)NC(=O)[C@@]1(C)c2ccccc2C(=O)N(Cc2cc(C(F)(F)F)cc(C(F)(F)F)c2)[C@H]1c1ccc(CO)cc1     z-score            0.49

Sure, the documented z-score for CC(=O)NCCCC[C@@H]1NC(=O)[C@H]2C[C@@H](C(=O)NCCCCCCNC(=O)CS)[C@@H](c3ccc(O)cc3)N2C1=O is 1.2

Record summary for COc1ccc(C(=O)Nc2ccc(CN3C(=O)[C@]4(O[C@H](CCO)[C@@H]([Si](C)(C)c5ccc(OC)cc5)[C@@H]4C)c4ccccc43)cc2)cc1 : reported z-score = -0.0534

Query Cc1ccc(S[C@]2(C(=O)O)CC(=O)N(C(C)C)[C@@H]2c2ccc(CO)cc2I)cc1 yields z-score of -2.31

The recorded z-score for CN1C(=O)C2C=CC(C(O)c3ccc([N+](=O)[O-])cc3)N(N3CCCCC3)C2C1=O (stereo not drawn) is 0.462

====

# Target Of Assay: NADPH oxidase 5 (Homo sapiens)
# Assay Protocol: NOX5-dependent H2O2 signal modulators, primary screen, NOX inhibitor project, cell-based, HEK293-NOX5, Amplex Red fluorescence (AID 1161)
# Condition Parameters: HEK293-NOX5, ionomycin, 45 min, higher = more signal
Value Kind: z-score

> print(dat)
                                   molecule                 target.of.assay  recorded.value
1  O=C1N(Cc2ccccc2)c2ccccc2[C@@H]2OC(c3ccc(OCCCO)cc3)=N[C@]12CCS(=O)(=O)c1ccccc1  NADPH oxidase 5 (Homo sapiens)            1.96
2  O=C1C[C@@](C(=O)NCCN2CCOCC2)(c2ccc([N+](=O)[O-])cc2)[C@@H](c2ccc(CO)cc2)N1CC12CC3CC(CC(C3)C1)C2  NADPH oxidase 5 (Homo sapiens)           -1.06
3  CCC(CC)C(O)C1C=CC2C(=O)NC(=O)C2N1Nc1ccccn1 (stereo not drawn)  NADPH oxidase 5 (Homo sapiens)           -1.52
4  COC(=O)[C@]1(CCC(=O)OC(C)(C)C)N=C(c2ccc(OCCCO)cc2)O[C@@H]1c1ccccc1CN=[N+]=[N-]  NADPH oxidase 5 (Homo sapiens)           -2.41
5  CCCC[C@H]1OB(O)C[C@H]2C1=C(COC)C[C@H]1C(=O)N(C)C(=O)[C@H]12  NADPH oxidase 5 (Homo sapiens)           0.786
6  CO[C@H]1O[C@H](CO)[C@@H](OC(=O)Nc2ccc(Oc3ccccc3)cc2)[C@H](OC(=O)Nc2ccc3c(c2)OCO3)[C@H]1OC(=O)Nc1ccc2c(c1)OCO2  NADPH oxidase 5 (Homo sapiens)          -0.714
7    CC(C)C(=C=CC[C@H](O)c1ccc(OCCO)cc1)CCO  NADPH oxidase 5 (Homo sapiens)           -1.96

Moving on to another molecule below.
// z-score (NADPH oxidase 5 (Homo sapiens)) for COCCCNC(=O)[C@]1(CCC(=O)OC(C)(C)C)N=C(c2ccc(OCCCO)cc2)O[C@@H]1c1ccccc1CN=[N+]=[N-] = -0.307

====

Listing of entries alongside the reported composite z-score.
# Assay Protocol: small-molecule binders of probe aNOTCH3, primary screen, biochemical, small-molecule microarray, 635/667 nm fluorescence (AID 1120);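 note: probe is a biotin-tagged antibody raised against NOTCH3 rather than NOTCH3 protein; score merges spot fluorescence near 667 nm with spot signal to noise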
# Condition Parameters: higher = more signal
In your answer, state the number alone without any accompanying words.

composite z-score reading for [N-]=[N+]=Nc1ccccc1[C@H]1OC(c2ccc(OCCCO)cc2)=N[C@@]1(CCS(=O)(=O)c1ccccc1)C(N)=O : 0.264

These entries and their values trace back to PubChem BioAssay.
